Taken from ChEMBL document CHEMBL4513216.

Experiment: Toxicity liver stage against HepG2, at 10uM
Format: cell-based
Design: test concentration 10 uM, cell line HepG2-A16-CD81EGFP
Settings: human, HepG2-A16-CD81EGFP cells; read-out: INHIBITION
metric.name: cytotoxicity at 10 µM (%)
Hi! Could you send only the number? It should be in %, unit omitted.

Examples from the recorded data:
Cc1noc(C)c1C(=O)N1CCC2(CC(N(C)c3ccncn3)C2)C1 (configuration not stated) : -5.94
CN(C)CCC1CCN(c2cc(N3CCCC3CO)ncn2)CC1 (configuration not stated) : -6.27

Input line: Can you share its cytotoxicity at 10 µM? I mean this compound: c1ccc(C2CN(C3CC3)CC3(CCN(Cc4cscn4)CC3)C2)cc1 (configuration not stated)
Output line: 5.58

Input line: Quick one: cytotoxicity at 10 µM of Cc1noc(CCCC(=O)NC(C)c2nnc3n2CCC3)n1 (configuration not stated) ?
Output line: 0.259

Input line: If you can, please state the reported cytotoxicity at 10 µM value of `Cn1nc(CNC(=O)c2ccc3nsnc3c2)c2c1CCOC2` .
Output line: 6.53

Input line: Can you share its cytotoxicity at 10 µM? I mean this compound: O=C1NC2(CCN(CCc3ccccc3)CC2)CC1c1ccccc1 (configuration not stated)
Output line: -48.6

Input line: Recorded cytotoxicity at 10 µM for `COc1cccc(N2C(=O)CC3(CCNCC3)C2=O)c1` , please?
Output line: 2.67

Input line: What does the record list as cytotoxicity at 10 µM for N#Cc1cccc(CS(=O)(=O)NCC(O)Cc2ccccc2)c1 (configuration not stated) ?
Output line: 2.99

Input line: I am curious: what cytotoxicity at 10 µM value has been reported for `Cc1c(C(=O)N(C)CC(F)(F)F)nnn1-c1ccccc1Cl` ?
Output line: -1.58

Input line: Dear colleague, I am looking for the recorded cytotoxicity at 10 µM of the following compound: CN(C)c1ccc(C(=O)N2CCCC(n3cccn3)C2)cn1 (configuration not stated)
Output line: -11.5

Input line: Which value of cytotoxicity at 10 µM has been reported for `CCn1nc(C)cc1C(=O)OCCNC(=O)c1ccccc1` in the records?
Output line: 1.44

Input line: Suppose we examine the compound `Cc1cc(C(=O)N2CCc3ncnc(-c4cnn(C)c4)c3CC2)c(C)o1` ; what cytotoxicity at 10 µM value has been reported?
Output line: 4.5

Input line: I have this compound here, `Cc1ccc(CN(C)C(=O)CCn2c(=O)n(C)c3ccccc32)o1` , and I need its recorded cytotoxicity at 10 µM.
Output line: 4

Input line: Given O=C(C(CNCc1ccccn1)c1ccccc1)N1CCOCC1 (configuration not stated) , state its recorded cytotoxicity at 10 µM.
Output line: 0.983

* * *

Test: Toxicity liver stage against HepG2, at 10uM
Type: cell-based
Design: test concentration 10 uM, cell line HepG2-A16-CD81EGFP
Details: human, HepG2-A16-CD81EGFP cells; read-out: INHIBITION
Parameter: cytotoxicity at 10 µM. Scope: all listed entries.

Input line: Which cytotoxicity at 10 µM value belongs to `COCc1nn(C)c2c1CN(Cc1cnn(C)c1)CC2` ?
Output line: 1.64%

Input line: // returns reported cytotoxicity at 10 µM for input `O=C(CC1CCCC1)N1CC[C@H]2[C@H]1CCN2c1nncs1`
Output line: -3.43%

* * *

Experiment: Toxicity liver stage against HepG2, at 10uM
Format: cell-based
Parameters: test concentration 10 uM, cell line HepG2-A16-CD81EGFP
Conditions: human, HepG2-A16-CD81EGFP cells; read-out: INHIBITION
As shown below, each of these molecules has a reported cytotoxicity at 10 µM value.
The reply must contain the numeric value and, after it, the unit.

Recorded results for 6 molecules are shown here.
CCc1ccc(C(N)c2cccc(S(C)(=O)=O)c2)cc1 (stereo unspecified) : -10.9%
O=C(N1CCOCC1)N1CCc2ncc(CN3CCCCC3)n2CC1 : -87.7%
CN(Cc1cc[nH]n1)C(=O)c1ccc2c(c1)nc(N1CC[C@H](O)C1)n2C : 4.43%
Cc1ccc(OCC2CCCN(C(=O)CCn3ccccc3=O)C2)cc1 (stereo unspecified) : -4.27%
O=C(c1cnccn1)N1CCCC2(CCN(c3ccccn3)C2)C1 (stereo unspecified) : 5.77%
N#Cc1ccc(C(=O)N2CC[C@H]3[C@@H]2CCC(=O)N3c2ccccc2)cc1 : 3.99%

Input line: Record request: cytotoxicity at 10 µM value, item CC(C)(CNC(=O)OC(C)(C)C)NC(=O)C1CC(=O)N(C2CC2)C1 (stereo unspecified)
Output line: 14.3%

Input line: So what's the measured cytotoxicity at 10 µM for this one? Nc1nc2c(s1)C(c1c(F)cccc1Cl)CC(=O)N2 (stereo unspecified)
Output line: 4.21%

Input line: Would you mind telling me what cytotoxicity at 10 µM value was observed for `Cc1oc(C(=O)O)cc1S(=O)(=O)Nc1ccc(Cl)c(F)c1` ?
Output line: -5.92%

Input line: For the molecule shown here, `CC(C)C(=O)Nc1cccc(CNC(=O)CSCc2ccccn2)c1` , give the reported cytotoxicity at 10 µM.
Output line: 9.65%

Input line: I would be grateful if you could share the reported cytotoxicity at 10 µM for `COCC(=O)N1CCc2nc(NC(C)C)nc(NC(C)C)c2CC1` .
Output line: -104%

* * *

Experiment: Toxicity liver stage against HepG2, at 10uM
Format: cell-based
Design: test concentration 10 uM, cell line HepG2-A16-CD81EGFP
Conditions: human, HepG2-A16-CD81EGFP cells; read-out: INHIBITION
Catalogue of cytotoxicity at 10 µM values
Note: unit % is implicit; provide only the numeric part.

Field: example entries. Status: answers known.
Cc1nnc(N2CCC(CS(N)(=O)=O)CC2)c(C#N)c1C : 2.12
Cc1ccc(CN2CCC3(CCCC(=O)N3)CC2)s1 : -3.45
Cc1cc(O)nc(C2CCCN(CCO)C2)n1 (centres undefined) : -14.6
O=C(Cc1cccs1)NCC1(O)CCSCC1 : -10.5
Cc1nc[nH]c1-c1nccn1CCN(C)S(C)(=O)=O : -6.03

Input line: What does the record list as cytotoxicity at 10 µM for `COc1ccc(CN(C)C2CSCCSC2)c2cccnc12` ?
Output line: 31.7

Input line: Need cytotoxicity at 10 µM of CCn1ncc(S(=O)(=O)N2CCCC3(CC=CNC3=O)C2)c1C (centres undefined) , thanks.
Output line: -7.6

Input line: Suppose we examine the compound CC(c1ccc(F)cc1F)N1CCN(CCC(=O)NC(N)=O)CC1 (centres undefined) ; what cytotoxicity at 10 µM value has been reported?
Output line: -8.58

Input line: What does the record list as cytotoxicity at 10 µM for Cc1cc(Cc2ccccc2C)cc(C2CCCNC2)n1 (centres undefined) ?
Output line: -3.59

Input line: So what does the record say about cytotoxicity at 10 µM for `O=C(c1sccc1-n1cnnn1)N1CCC2(CCCCC2)CC1` ?
Output line: 9.09

Input line: Fill in: cytotoxicity at 10 µM of CCN(CC)S(=O)(=O)N1CCCC(c2cccc(C(=O)O)c2)C1 (centres undefined) is ___
Output line: -10

Input line: I have this compound here, `Cc1ccnc(OC[C@]23COC[C@H]2CN(C(=O)C2=CCCCC2)C3)n1` , and I need its recorded cytotoxicity at 10 µM.
Output line: 0.325

Input line: I would be grateful if you could share the reported cytotoxicity at 10 µM for `OCc1ccc(CN2CCC(n3cc(-c4ccsc4)nn3)CC2)o1` .
Output line: 6.77

Input line: Record request: cytotoxicity at 10 µM value, item `O=C(NC1CC1)c1cc(C2CC2)nc2onc(C3CCNCC3)c12`
Output line: 7.16

Input line: Looking for the measured cytotoxicity at 10 µM of CCn1ccc(NC(=O)C2CCC(=O)N2Cc2ccc(C)o2)n1 (centres undefined) , can you help?
Output line: 6.17

Input line: Could you share which cytotoxicity at 10 µM value was measured for `CC(C)OCCN1CCC(Nc2ncc(Br)cn2)CC1` ?
Output line: 2.83

Input line: What cytotoxicity at 10 µM value was documented for this compound, `C[C@@H]1CN(C(=O)c2ccc(C#N)nc2)C[C@@]1(O)C1CC1` ?
Output line: -28.8

Input line: Name the reported cytotoxicity at 10 µM value associated with the compound CNC(=O)c1cc(C2CCCN2)n[nH]1 (centres undefined)
Output line: -11.9

Input line: Report cytotoxicity at 10 µM for `CCOC(=O)N1CCN(C(=O)CCn2ccc3c(OC)cccc32)CC1` please.
Output line: 9.69

Input line: What value of cytotoxicity at 10 µM has been recorded for this entry: CCCC(=O)N1CCCCC1c1nc(N(C)C)ncc1-c1cc(C)no1 (centres undefined)
Output line: 4.94

* * *

Experiment: Toxicity liver stage against HepG2, at 10uM
Assay type: cell-based
Set-up: test concentration 10 uM, cell line HepG2-A16-CD81EGFP
Settings: human, HepG2-A16-CD81EGFP cells; read-out: INHIBITION
metric.name: cytotoxicity at 10 µM (%)
Return type: number; implicit unit %.

Cc1cc2nc(C(C)C)cc(NC(C)c3nncn3C3CCCC3)n2n1 (centres undefined) : 8.91
CCC1(CNC(=O)NC(c2nnc3n2CCC3)C(C)C)CCC1 (centres undefined) : 0.864
O=C1NCCN(Cc2ccoc2)C1CC(=O)N1CCc2sccc2C1 (centres undefined) : -3.45
CC(C)(O)CCc1cccc(C(=O)N2CCC3(CCO3)CC2)c1 : -0.864
CSc1ccc2c(C)cc(N[C@@H](C)CO)nc2c1 : -1.07

Input line: Any idea what its cytotoxicity at 10 µM is? The compound is CC(=O)N1CCCC(c2ncncc2-c2ccncc2)C1 (centres undefined)
Output line: -15.3

Input line: Record request: cytotoxicity at 10 µM value, item `Cc1csc(CN2CCC[C@]3(C[C@H](Oc4ccccn4)CO3)C2)n1`
Output line: -14
